# credit: patent US4340609A

tested on: plasmodium berghei; assay: suppression of parasitemia in mice infected with plasmodium berghei; type: in vivo; conditions: mice, s.c., .50 mg/kg on days 1-3; 5th day
Structures can show the parent of a compound that is named as a salt.
EXPERIMENTAL_ENDPOINT: Mean % Parasitemia (%)

>>> print(df.to_string())
                                   molecule  unit_text  measured_number
0  Cc1cccc(C)c1NC(=O)NC(=N)NC(C)C.Cl [Compound E]          %             6.90
1  CNC(=N)NC(=O)Nc1c(C)cccc1Br [Compound B, hydrochloride]          %             5.10
2  CCCNC(=O)NC(=N)Nc1c(Cl)cccc1Cl [Compound A]          %             5.00
3  CNC(=N)NC(=O)Nc1c(C)cc(Br)cc1Cl.Cl [Compound C]          %             5.20
4  CCCN=C(NC)NC(=O)Nc1c(C)cccc1C [Compound D, hydrochloride]          %             7.10

----------
Mean % Parasitemia values by entry
system: plasmodium berghei; experiment: suppression of parasitemia in mice infected with plasmodium berghei; type: in vivo; conditions: mice, s.c., .50 mg/kg on days 1-3; 6th day
Counter-ions that a name gives are not always drawn.
EXPERIMENTAL_ENDPOINT: Mean % Parasitemia

>>> print(df.to_string())
                                   molecule  measurement_target  result
0            CCCNC(=O)NC(=N)Nc1c(Cl)cccc1Cl  plasmodium berghei   5.40%
1  CNC(=N)NC(=O)Nc1c(C)cccc1Br [Compound B, hydrochloride]  plasmodium berghei   5.80%
2         Cc1cccc(C)c1NC(=O)NC(=N)NC(C)C.Cl  plasmodium berghei   7.40%
3        CNC(=N)NC(=O)Nc1c(C)cc(Br)cc1Cl.Cl  plasmodium berghei   7.00%
4  CCCN=C(NC)NC(=O)Nc1c(C)cccc1C [Compound D, hydrochloride]  plasmodium berghei   7.30%

----------
tested on: plasmodium berghei; experiment: suppression of parasitemia in mice infected with plasmodium berghei; type: in vivo; details: mice, s.c., .20 mg/kg on days 1-3; 14th day
Structures can show the parent of a compound that is named as a salt.
Catalogue of % died values
EXPERIMENTAL_ENDPOINT: % died (%)

>>> df
                                   molecule  experimental_endpoint  unit_text  measured_number
0  Cc1cccc(C)c1NC(=O)NC(=N)NC(C)C.Cl [Compound E]                 % died          %               60
1  CCCN=C(NC)NC(=O)Nc1c(C)cccc1C [Compound D, hydrochloride]                 % died          %              100
2  CNC(=N)NC(=O)Nc1c(C)cc(Br)cc1Cl.Cl [Compound C]                 % died          %               60
3  CCCNC(=O)NC(=N)Nc1c(Cl)cccc1Cl [Compound A]                 % died          %               20
4  CNC(=N)NC(=O)Nc1c(C)cccc1Br [Compound B, hydrochloride]                 % died          %               40
